// provenance: patent US11407725B2

Assay: Log D7.4
Assay type: physicochemical
Conditions: pH 7.4
// values below are reported logD
value.type: logD

[[record]]
molecule = "Cc1cc(C=O)ccc1-c1c2cc(F)c(=O)cc-2oc2cc(O)c(F)cc12 [AlDeSense]"
quantitative_readout = 0.88

[[record]]
molecule = "CC(=O)c1ccc(-c2c3cc(F)c(=O)cc-3oc3cc(O)c(F)cc23)c(C)c1 [Ctrl-AlDeSense]"
quantitative_readout = 0.87


###

Target: ALDH1A1 (Homo sapiens)
Construct: made in house
Assay: ALDH isoform selectivity of red probes: ALDH1A1
Type: biochemical
Conditions: Table 2; ALDH1A1; 2 μM dye
The compounds listed here are annotated with their Enzymatic Turn On.
value.type: Enzymatic Turn On

[[record]]
compound = "Cc1cc(C=O)c(F)c(F)c1C1=C2C=CC(=O)C=C2[Si](C)(C)c2cc(O)ccc21"
value_type = "Enzymatic Turn On"
quantitative_readout = 3.2

[[record]]
compound = "Cc1cc(C=O)ccc1C1=C2C=CC(=O)C=C2[Si](C)(C)c2cc(O)ccc21 [Probe 1]"
value_type = "Enzymatic Turn On"
quantitative_readout = 1.7

[[record]]
compound = "Cc1cc(C=O)c(F)cc1C1=C2C=CC(=O)C=C2[Si](C)(C)c2cc(O)ccc21 [Probe 5]"
value_type = "Enzymatic Turn On"
quantitative_readout = 2.6

[[record]]
compound = "C[Si]1(C)C2=CC(=O)C=CC2=C(c2ccc(C=O)cc2C(F)(F)F)c2ccc(O)cc21 [Probe 3]"
value_type = "Enzymatic Turn On"
quantitative_readout = 2.7

[[record]]
compound = "Cc1c(F)c(C=O)cc(F)c1C1=C2C=CC(=O)C=C2[Si](C)(C)c2cc(O)ccc21 [Probe 8]"
value_type = "Enzymatic Turn On"
quantitative_readout = 3.1

[[record]]
compound = "C[Si]1(C)C2=CC(=O)C=CC2=C(c2c(F)cc(C=O)cc2F)c2ccc(O)cc21 [Probe 6]"
value_type = "Enzymatic Turn On"
quantitative_readout = 3.9


###

Test: pKa determination (pH profile of fluorescence)
Details: 40 mM Britton-Robinson buffer
value.type: pKa

[[record]]
compound = "Cc1cc(C=O)ccc1-c1c2cc(F)c(=O)cc-2oc2cc(O)c(F)cc12 [AlDeSense]"
value_type = "pKa"
quantitative_readout = 4.81


###

Test: physchem
value.type: pKa

[[record]]
given_smiles = "Cc1cc(C=O)c(F)c(F)c1C1=C2C=CC(=O)C=C2[Si](C)(C)c2cc(O)ccc21"
value_type = "pKa"
result = 6.68


###

Assay: pKa determination (pH profile of fluorescence)
Conditions: Britton-Robinson buffer
value.type: pKa

[[record]]
given_smiles = "CC(=O)c1ccc(-c2c3cc(F)c(=O)cc-3oc3cc(O)c(F)cc23)c(C)c1"
quantitative_readout = 4.47


###

# Lookup of reported turn-on response when treated with ALDH1A1 keyed by entry
Biological target: ALDH1A1 (Homo sapiens, UniProt P00352)
Construct: made in house
Sequence (P00352 whole entry): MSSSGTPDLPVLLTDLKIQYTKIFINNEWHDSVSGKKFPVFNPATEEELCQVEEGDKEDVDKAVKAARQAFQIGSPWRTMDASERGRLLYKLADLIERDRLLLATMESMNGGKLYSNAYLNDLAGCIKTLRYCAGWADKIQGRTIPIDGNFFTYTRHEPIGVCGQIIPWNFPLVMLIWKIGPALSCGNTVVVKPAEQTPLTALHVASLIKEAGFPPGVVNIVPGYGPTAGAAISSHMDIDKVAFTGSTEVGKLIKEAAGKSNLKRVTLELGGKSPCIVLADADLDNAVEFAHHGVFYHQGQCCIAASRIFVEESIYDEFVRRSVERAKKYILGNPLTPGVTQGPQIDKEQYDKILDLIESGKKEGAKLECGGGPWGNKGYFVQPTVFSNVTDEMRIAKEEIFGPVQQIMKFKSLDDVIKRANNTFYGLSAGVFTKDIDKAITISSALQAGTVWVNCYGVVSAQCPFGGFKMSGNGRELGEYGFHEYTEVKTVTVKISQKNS
Assay: ALDH isoform selectivity of red probes: ALDH1A1
Type: biochemical
Protocol: Each ALDH isoform was added to a 50 mM triethanolamine solution (pH 7.4) containing 2.0 mM NAD^+ and 100 μM substrate at room temperature. Benzaldehyde was the substrate for ALDH3A1. Propanal was the substrate for all other isoforms. ALDH isoform activity was determined by monitoring the rate of NADH production through the increase in absorbance at 340 nm (ε=6220 M^−1cm^−1). […] Dyes were excited at 590 nm, and fluorescence was measured continuously at 610 nm.
value.type: turn-on response when treated with ALDH1A1 (fold)

[[record]]
given_smiles = "Cc1cc(C=O)ccc1C1=C2C=CC(=O)C=C2[Si](C)(C)c2cc(O)ccc21"
quantitative_readout = 1.7

[[record]]
given_smiles = "C[Si]1(C)C2=CC(=O)C=CC2=C(c2c(F)cc(C=O)cc2F)c2ccc(O)cc21"
quantitative_readout = 3.9

[[record]]
given_smiles = "Cc1cc(C=O)c(F)c(F)c1C1=C2C=CC(=O)C=C2[Si](C)(C)c2cc(O)ccc21"
quantitative_readout = 3.2

[[record]]
given_smiles = "Cc1cc(C=O)c(F)cc1C1=C2C=CC(=O)C=C2[Si](C)(C)c2cc(O)ccc21"
quantitative_readout = 2.6


###

Target: ALDH1A3 (Homo sapiens, UniProt P47895)
Construct: made in house
Sequence (P47895 whole entry): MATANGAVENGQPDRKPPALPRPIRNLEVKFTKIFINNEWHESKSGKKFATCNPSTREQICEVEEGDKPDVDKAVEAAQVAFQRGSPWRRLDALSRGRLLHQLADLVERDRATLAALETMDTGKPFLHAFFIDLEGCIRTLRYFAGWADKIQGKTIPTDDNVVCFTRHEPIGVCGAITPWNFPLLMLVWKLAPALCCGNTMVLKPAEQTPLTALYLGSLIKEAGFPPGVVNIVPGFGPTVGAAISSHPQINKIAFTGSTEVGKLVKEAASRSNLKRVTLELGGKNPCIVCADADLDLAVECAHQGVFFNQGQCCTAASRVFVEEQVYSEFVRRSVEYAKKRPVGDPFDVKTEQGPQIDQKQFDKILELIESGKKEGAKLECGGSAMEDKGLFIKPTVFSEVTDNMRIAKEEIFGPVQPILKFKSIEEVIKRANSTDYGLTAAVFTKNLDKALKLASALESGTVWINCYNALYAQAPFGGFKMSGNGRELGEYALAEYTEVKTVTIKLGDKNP
Test: ALDH isoform selectivity of red probes: ALDH1A3
Type: biochemical
Settings: Table 2
value.type: Enzyme Activity 1A3

[[record]]
given_smiles = "Cc1cc(C=O)ccc1C1=C2C=CC(=O)C=C2[Si](C)(C)c2cc(O)ccc21"
value_type = "Enzyme Activity 1A3"
result = "Medium"

[[record]]
given_smiles = "C[Si]1(C)C2=CC(=O)C=CC2=C(c2ccc(C=O)cc2C(F)(F)F)c2ccc(O)cc21"
value_type = "Enzyme Activity 1A3"
result = "Low"

[[record]]
given_smiles = "C[Si]1(C)C2=CC(=O)C=CC2=C(c2c(F)cc(C=O)cc2F)c2ccc(O)cc21"
value_type = "Enzyme Activity 1A3"
result = "High"

[[record]]
given_smiles = "Cc1c(F)c(C=O)cc(F)c1C1=C2C=CC(=O)C=C2[Si](C)(C)c2cc(O)ccc21"
value_type = "Enzyme Activity 1A3"
result = "Medium"

[[record]]
given_smiles = "Cc1cc(C=O)c(F)cc1C1=C2C=CC(=O)C=C2[Si](C)(C)c2cc(O)ccc21"
value_type = "Enzyme Activity 1A3"
result = "Low"

[[record]]
given_smiles = "Cc1cc(C=O)c(F)c(F)c1C1=C2C=CC(=O)C=C2[Si](C)(C)c2cc(O)ccc21"
value_type = "Enzyme Activity 1A3"
result = "Low"


###

Assay: Photophysical properties (absorbance, emission, extinction coefficient, quantum yield)
Assay type: physicochemical
Details: Probes 1-8
# key: entry, value: Quantum Yield
value.type: Quantum Yield

[[record]]
given_smiles = "Cc1cc(C=O)c(F)c(F)c1C1=C2C=CC(=O)C=C2[Si](C)(C)c2cc(O)ccc21"
quantitative_readout = 0.21

[[record]]
given_smiles = "C[Si]1(C)C2=CC(=O)C=CC2=C(c2ccc(C=O)cc2C(F)(F)F)c2ccc(O)cc21"
quantitative_readout = 0.25

[[record]]
given_smiles = "C[Si]1(C)C2=CC(=O)C=CC2=C(c2c(F)cc(C=O)cc2F)c2ccc(O)cc21"
quantitative_readout = 0.13

[[record]]
given_smiles = "Cc1cc(C=O)c(F)cc1C1=C2C=CC(=O)C=C2[Si](C)(C)c2cc(O)ccc21"
quantitative_readout = 0.21


###

Assay: Photophysical properties (absorbance, emission, extinction coefficient, quantum yield)
Type: physicochemical
Settings: Probes 1-8
value.type: Quantum Yield

[[record]]
given_smiles = "Cc1cc(C=O)ccc1C1=C2C=CC(=O)C=C2[Si](C)(C)c2cc(O)ccc21"
result = 0.32

[[record]]
given_smiles = "Cc1c(F)c(C=O)cc(F)c1C1=C2C=CC(=O)C=C2[Si](C)(C)c2cc(O)ccc21"
result = 0.20

[[record]]
given_smiles = "C[Si]1(C)C2=CC(=O)C=CC2=C(c2ccc(C=O)cc2[N+](=O)[O-])c2ccc(O)cc21"
result = 0.00


###

Tested on: K562 cells
Test: Trypan blue cytotoxicity / viability assay
Format: cell-based
Conditions: K562 cells; 6, 12 and 24 hours
Procedure: K562 cells were plated in a 96-well plate with 50,000 cells per well. Each well was filled to a final volume of 100 μL IMDM media with 0.25% DMSO. Wells were tested using red-AlDeSense or Ctrl-red-AlDeSense (1 μM and 5 μM each) or using a DMSO control. […] Samples were incubated for 3 minutes at room temperature before being loaded on a hemocytometer where live and dead cells were counted. […]
value.type: toxicity in cell viability assay

[[record]]
given_smiles = "Cc1cc(C(=O)O)ccc1-c1c2cc(F)c(=O)cc-2oc2cc(O)c(F)cc12"
result = "non-toxic"

[[record]]
given_smiles = "Cc1cc(C=O)ccc1-c1c2cc(F)c(=O)cc-2oc2cc(O)c(F)cc12"
result = "non-toxic"

[[record]]
given_smiles = "CC(=O)c1ccc(-c2c3cc(F)c(=O)cc-3oc3cc(O)c(F)cc23)c(C)c1"
result = "non-toxic"

